Each entry below carries its recorded GI50.
test system: KM12; assay: Growth inhibition of human KM12 cells measured after 48 hrs by sulforhodamine B assay; format: functional

{"columns": ["COMPOUND", "UNITS OF MEASURE", "MEASUREMENT QUALIFIER", "GI50"],
 "data": [
  ["COc1cc([C@@H]2c3cc4c(cc3[C@@H](O[C@@H]3O[C@@H]5CO[C@@H](C)O[C@H]5[C@H](O)[C@H]3O)[C@H]3COC(=O)[C@H]23)OCO4)cc(OC)c1O [ETOPOSIDE]", "µM", "=", 14.1],
  ["CC(C)(O)[C@@H]1Cc2c(cc(O)c3c(=O)c(-c4ccc(O)cc4)coc23)O1", "µM", "=", 0.813],
  ["CC(C)(O)[C@H]1Cc2c(cc(O)c3c(=O)c(-c4ccc(O)cc4)coc23)O1", "µM", ">", 100],
  ["O=c1c(-c2ccc(O)cc2)coc2cc(O)cc(O)c12", "µM", "=", 50.1]
]}

---

Each entry below carries its recorded GI50.
test system: NCI-H460; test: Growth inhibition of human NCI-H460 cells measured after 48 hrs by sulforhodamine B assay; assay type: functional

{"columns": ["MOLECULE", "ASSAY TARGET", "UNITS OF MEASURE", "MEASUREMENT QUALIFIER", "GI50"],
 "data": [
  ["CC(C)(O)[C@H]1Cc2c(cc(O)c3c(=O)c(-c4ccc(O)cc4)coc23)O1", "NCI-H460", "nM", ">", 100000],
  ["O=c1c(-c2ccc(O)cc2)coc2cc(O)cc(O)c12", "NCI-H460", "nM", "=", 26300],
  ["COc1cc([C@@H]2c3cc4c(cc3[C@@H](O[C@@H]3O[C@@H]5CO[C@@H](C)O[C@H]5[C@H](O)[C@H]3O)[C@H]3COC(=O)[C@H]23)OCO4)cc(OC)c1O [ETOPOSIDE]", "NCI-H460", "nM", "=", 1150],
  ["CC(C)(O)[C@@H]1Cc2c(cc(O)c3c(=O)c(-c4ccc(O)cc4)coc23)O1", "NCI-H460", "nM", "=", 70.8]
]}

---

test system: OVCAR-5; experiment: Growth inhibition of human OVCAR-5 cells measured after 48 hrs by sulforhodamine B assay; type: functional
Each entry below carries its recorded GI50.

{"columns": ["COMPOUND", "MEASUREMENT QUALIFIER", "GI50 (µM)"],
 "data": [
  ["CC(C)(O)[C@@H]1Cc2c(cc(O)c3c(=O)c(-c4ccc(O)cc4)coc23)O1", "=", 1.35],
  ["O=c1c(-c2ccc(O)cc2)coc2cc(O)cc(O)c12", "=", 50.1],
  ["COc1cc([C@@H]2c3cc4c(cc3[C@@H](O[C@@H]3O[C@@H]5CO[C@@H](C)O[C@H]5[C@H](O)[C@H]3O)[C@H]3COC(=O)[C@H]23)OCO4)cc(OC)c1O [ETOPOSIDE]", "=", 19.5],
  ["CC(C)(O)[C@H]1Cc2c(cc(O)c3c(=O)c(-c4ccc(O)cc4)coc23)O1", ">", 100]
]}

---

test system: HCC 2998; assay: Growth inhibition of human HCC 2998 cells measured after 48 hrs by sulforhodamine B assay; format: functional
Each entry below carries its recorded GI50.
REPORTED METRIC: GI50 (µM)

{"columns": ["COMPOUND", "MEASUREMENT QUALIFIER", "MEASURED"],
 "data": [
  ["O=c1c(-c2ccc(O)cc2)coc2cc(O)cc(O)c12", "=", 45.7],
  ["COc1cc([C@@H]2c3cc4c(cc3[C@@H](O[C@@H]3O[C@@H]5CO[C@@H](C)O[C@H]5[C@H](O)[C@H]3O)[C@H]3COC(=O)[C@H]23)OCO4)cc(OC)c1O [ETOPOSIDE]", "=", 5.62],
  ["CC(C)(O)[C@@H]1Cc2c(cc(O)c3c(=O)c(-c4ccc(O)cc4)coc23)O1", "=", 2.04],
  ["CC(C)(O)[C@H]1Cc2c(cc(O)c3c(=O)c(-c4ccc(O)cc4)coc23)O1", ">", 100]
]}
